Sourced from patent US20210388087A1

fold change of affinity for assorted binders
target: T1, Human CD137 ECD (human); experiment: Biacore SPR, vs parent H183/L072
T1 construct: entry includes C-terminal His-tag and biotin acceptor peptide; also called human CD137 extracellular domain; 4-1BB
T1 sequence (chain, as listed by the source limits assumed): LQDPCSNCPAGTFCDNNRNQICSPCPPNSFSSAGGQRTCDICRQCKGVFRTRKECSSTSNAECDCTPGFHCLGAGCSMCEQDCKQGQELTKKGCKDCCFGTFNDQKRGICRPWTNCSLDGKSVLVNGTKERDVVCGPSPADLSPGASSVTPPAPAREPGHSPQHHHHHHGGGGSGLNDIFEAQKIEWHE
Give a bare numeral; the unit fold is implied.

Please review the entries below; each comes with its answer.
Which value of fold change of affinity has been reported for H183/L072 VL Q24A (antibody, name in Kabat numbering, V domains shown, Dual-Ig) VH: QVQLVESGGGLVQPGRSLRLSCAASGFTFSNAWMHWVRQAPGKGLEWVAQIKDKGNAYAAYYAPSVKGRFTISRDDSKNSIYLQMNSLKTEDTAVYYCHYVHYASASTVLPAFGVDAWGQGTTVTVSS VL: DIVMTQSPLSLPVTPGEPASISCAASQELVHMNRNTYLHWYQQKPGQAPRLLIYKVSNRFPGVPDRFSGSGSGTDFTLKISRVEAEDVGVYYCAQGTSVPFTFGQGTKLEIK in the records?
1

Which value of fold change of affinity has been reported for H183/L072 VL A89N (antibody, name in Kabat numbering, V domains shown, Dual-Ig) VH: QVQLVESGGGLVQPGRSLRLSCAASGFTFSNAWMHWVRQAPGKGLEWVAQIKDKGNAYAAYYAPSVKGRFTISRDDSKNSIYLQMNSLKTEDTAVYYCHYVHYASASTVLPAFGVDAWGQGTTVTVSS VL: DIVMTQSPLSLPVTPGEPASISCQASQELVHMNRNTYLHWYQQKPGQAPRLLIYKVSNRFPGVPDRFSGSGSGTDFTLKISRVEAEDVGVYYCNQGTSVPFTFGQGTKLEIK in the records?
0

Which value of fold change of affinity has been reported for H183/L072 VL F55N (antibody, name in Kabat numbering, V domains shown, Dual-Ig) VH: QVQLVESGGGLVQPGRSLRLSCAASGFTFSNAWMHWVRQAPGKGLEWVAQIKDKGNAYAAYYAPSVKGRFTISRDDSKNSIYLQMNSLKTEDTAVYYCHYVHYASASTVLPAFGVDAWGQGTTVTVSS VL: DIVMTQSPLSLPVTPGEPASISCQASQELVHMNRNTYLHWYQQKPGQAPRLLIYKVSNRNPGVPDRFSGSGSGTDFTLKISRVEAEDVGVYYCAQGTSVPFTFGQGTKLEIK in the records?
0

Next:
Which value of fold change of affinity has been reported for H183/L072 VL V51P (antibody, name in Kabat numbering, V domains shown, Dual-Ig) VH: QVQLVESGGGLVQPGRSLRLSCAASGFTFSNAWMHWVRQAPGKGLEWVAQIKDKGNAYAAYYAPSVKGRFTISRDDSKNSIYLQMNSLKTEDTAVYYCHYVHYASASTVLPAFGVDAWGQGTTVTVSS VL: DIVMTQSPLSLPVTPGEPASISCQASQELVHMNRNTYLHWYQQKPGQAPRLLIYKPSNRFPGVPDRFSGSGSGTDFTLKISRVEAEDVGVYYCAQGTSVPFTFGQGTKLEIK in the records?
0

Which value of fold change of affinity has been reported for H183/L072 VL Y32G (antibody, name in Kabat numbering, V domains shown, Dual-Ig) VH: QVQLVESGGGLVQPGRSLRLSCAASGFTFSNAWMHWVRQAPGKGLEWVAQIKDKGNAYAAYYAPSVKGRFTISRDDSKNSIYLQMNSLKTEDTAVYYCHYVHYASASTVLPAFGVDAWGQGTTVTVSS VL: DIVMTQSPLSLPVTPGEPASISCQASQELVHMNRNTGLHWYQQKPGQAPRLLIYKVSNRFPGVPDRFSGSGSGTDFTLKISRVEAEDVGVYYCAQGTSVPFTFGQGTKLEIK in the records?
0.1
